Assay Remarks: yeast display, Sf9 membrane polyspecificity reagent, FACS + sequencing; frameworks hold sequencing errors
Value Kind: polyreactivity (PSR sort gate)

{"columns": ["Sequence Input", "Result"],
 "data": [
  ["QVQLVESGGGLDQAGGSLRLSCAASGRIIRYYAKGWYRQAPGKEREFVATISSGGSTNYADSVKGRFTISRDNAKNNVYLQMNSLKQEHTSVYYCNRVYSRHVWGQGTQVTVSS", "high polyreactivity"],
  ["QVQLVESGGGLVQAGGRLRLSCAASGSIFRRYAMGWYRQAPGKERELVAAISSKGGSTYYADSVKGRFTISRDNAKNTVYLQMNSLKPEDTAVYYCNAQLVHYRFSSVFTYTIDDYWGQGTQVTVSS", "high polyreactivity"],
  ["QVQLVESGGGLVQAGGSLRLSCAASGRTFSAYAMGWYRQAPGKERELVARITSVDSTNYADSVKGRFTISRDNAKNSVYLQMNSLKPEDTAVYDCNATFGYPFVDYDDYWGQGTQVTVSS", "low polyreactivity"],
  ["QVQLVESGGGLVQAGGSLRLSCAASGRIFGFYAMGWYRQAPGKERELVAVITYRDGRTYYADSVKGRFTISRDNAKNTVYLQMNSLKPQDTAVYYCAADRGVYDPGDYWGQGTQVTVSS", "low polyreactivity"],
  ["QVQLVESGGGLVQAGGSLRLSCSASGITFWKYAMGWYRQAPGKERELVASISGRGGSTYYADSVKGRFTISRYKANNTVYLQMNSLKPEDTAVYYCAKYPGISGYNYWGQGTQVTVSS", "high polyreactivity"],
  ["QVQLQESGGGLVQAGGSLRLSCAASGTIFRISDMGSYRQAPGKELEFVAAITYGANTYYADSGKGRFTISRDNAKNTVYLQMNSLKPEDTAVYYCAVPPVKETILDYWGQGTQVTVSS", "low polyreactivity"],
  ["QVQLVESGGGLVQAGGSLRLSCASSGSTFGPYTMGWYTQAPGKERELVATISSGGSTYYADSVKGRFTISRDNAKYTVYLQMKSLKPEDTAVYYCAARYWSIYDYWGQGTQVTVSS", "low polyreactivity"],
  ["QVQLVESGGGLVQAGGSLRLSCAASGSIFAVYAMGWYRQAPGNERELVAVITRSGGSTYYADSVKGRFTISRDNAKNTVYLQMNSLKPEDTAVYYCAARTGYGYTRYEYWGQGTQVTVSS", "high polyreactivity"],
  ["QVQLVESGGGLVQAGGSLRLSCAASGSTFSINAMGWYRQAPGKERELVAAITWRGVRTYYADSVKGRFTISRDNAKNTVYLQMNSLKPEDPAVYYCAAVPATSYPRRYVYAYYYWGQGTQVTVSS", "high polyreactivity"],
  ["QVQHVESGGGLVQAGGSHRLSSAASGSTFRGYVMGWYRQAPGKERELVAVITTSDGDTYYADSVKGRFTNSRDNAKNTVYLQMNSLKPEDTAVYYCNADLYSYYGDNYWGQGTQVTVSS", "low polyreactivity"],
  ["QVQLVESGGGLVHAGGSLRLSCAASGRTFGKYAMGWYRQAPGKERELVAAISSGGTTYYADSVKGRFTISRDNAKNTVYLQMNSLKPEDTAVYYCAADPRYPYNYWGQGTQVTVSS", "low polyreactivity"]
]}
